Kindly supply the reported melting point values for the records listed here.

Cc1nnc2c3c(c(Cl)nn12)C1CCC3CC1 has a reported melting point of 178 to 179 °C

Cc1cn(C2CC(O)C(COC(c3ccccc3)(c3ccccc3)c3ccccc3)O2)c(=O)[nH]c1=O (stereo not given) has a reported melting point of 107 to 110 °C

CC(C)(CO)NS(=O)(=O)c1cc(NC(=O)c2cnn3c(C(F)(F)F)cc(-c4ccc(Cl)cc4)nc23)c(Cl)s1 has a reported melting point of 272 °C

Nc1nc(-c2ccccn2)cc2ccccc12 has a reported melting point of 152 to 153 °C

CSc1nc(-c2ccccc2)n(-c2ccc(F)cc2)c(=O)c1C#N has a reported melting point of 204 to 205 °C

CC(O)(c1ccc(C#N)cc1)c1cncs1 (stereo not given) has a reported melting point of 162 to 164 °C

CC1(COCCCCCCOc2ccc(C(=O)O)cc2)COC1 has a reported melting point of 58.5 °C

CCCCCCC(=O)Nc1cccc2c1C(=O)N(C1(C)CCC(=O)NC1=O)C2=O (stereo not given) has a reported melting point of 172 to 174 °C

O=C(c1cccc(Cl)c1)N1CCc2cc(S(=O)(=O)N3CC(c4ccccc4)NC3=O)ccc21 (stereo not given) has a reported melting point of 132 to 136 °C

Cc1nc(COc2cc(N)c(Cl)cc2C(=O)O)cs1 has a reported melting point of 188 to 189 °C

CC(C)(C)OC(=O)c1cc(N=Nc2ccccc2CCC(=O)O)ccc1O has a reported melting point of 86 to 88 °C

CN=C(N)Nc1nc(-c2cccc(C(=O)NC)c2)cs1 has a reported melting point of 111 to 113 °C

O=C(Nc1cccc(-c2ccnc3c(C(=O)c4cccs4)cnn23)c1)c1cnccn1 has a reported melting point of 222 to 224 °C

CCc1ccc2oc(=O)[nH]c2c1 has a reported melting point of 146 to 147 °C

NC(=O)c1cccc(CN2C(=O)C3(COc4cc5c(cc43)OCCO5)c3ccccc32)c1 (stereo not given) has a reported melting point of 130 to 135 °C

Nc1ccc(C#Cc2ccc(C#Cc3ccccc3)c([N+](=O)[O-])c2)cc1 has a reported melting point of 175 to 177 °C

Cc1nsc2cc(N)c([N+](=O)[O-])cc12 has a reported melting point of 189 to 191 °C

O=C1Cc2c(cccc2C(=O)O)Sc2ccc(F)cc21 has a reported melting point of 242 to 244 °C

CC1(C)C=C(CN2C/C(=C\c3ccc(F)cc3)C(=O)/C(=C/c3ccc(F)cc3)C2)C(C)(C)N1O has a reported melting point of 142 to 144 °C

CN1CCC(=C2c3ccc(F)cc3CCn3ccnc32)CC1 has a reported melting point of 152 °C

Recorded values, source a melting point compilation (Tetko et al.; mined from patent text by program, amines drawn as free bases though some values may be those of a salt).
